# system: LYPLA1
# protocol-summary: IC50 of LYPLA1/LYPLA2 inhibition – biochemical, gel-based ABPP, dose response (AID 493110)
# setup-conditions: competitive probe labeling
Activity calls are given as the source filed them. The rule behind the calls is not given here.
// one of active, inactive, no free text

Example cases with answers are listed next.
compound | system | class-assignment
CC(C)(O)c1cnn(C(=O)N2CCC(C(C)(C)C)CC2)n1 | LYPLA1 | active
CC(C)(C)C1CCN(C(=O)n2ncc(C(O)(c3ccccc3)c3ccccc3)n2)CC1 | LYPLA1 | active
CCC1CCCCN1C(=O)n1ncc(C(O)(c2ccccc2)c2ccccc2)n1 (stereo not given) | LYPLA1 | inactive
CC(C)(C)C1CCN(C(=O)n2ncc(C3(O)CCCCC3)n2)CC1 | LYPLA1 | active

Incoming: Hi, sorry to bother you, what did the test record for O=C(N1CCOCC1)n1nnc2ccccc21 ?
Outgoing: active

---

# system: LYPLA2
# protocol-summary: IC50 of LYPLA1/LYPLA2 inhibition – biochemical, gel-based ABPP, dose response (AID 493110)
# setup-conditions: competitive probe labeling
Calls of active or inactive are those of the source. No rule for the calls is given here.
Output constraint: value belongs to active, inactive

Answered cases to consult:
compound | class-assignment
CCC1CCCCN1C(=O)n1ncc(C(O)(c2ccccc2)c2ccccc2)n1 (stereo not given) | inactive
O=C(N1CCOCC1)n1nnc2ccccc21 | inactive
CC(C)(O)c1cnn(C(=O)N2CCC(C(C)(C)C)CC2)n1 | active
CC(C)(C)C1CCN(C(=O)n2ncc(C3(O)CCCCC3)n2)CC1 | active

# ---- query compound ----
Incoming: Called result for CC(C)(C)C1CCN(C(=O)n2ncc(C(O)(c3ccccc3)c3ccccc3)n2)CC1
Outgoing: active

The reported numbers originate from PubChem BioAssay AID493110.
